- Test system: TT cells
- procedure.details: Cytotoxicity test using CPT-11-encapsulating liposomes
- Format: cell-based
- conditions: Homo sapiens, 48 hrs incubation
property.measured: IC50

Ask: What does the data say about its IC50? Entry: CCc1c2c(nc3ccc(OC(=O)N4CCC(N5CCCCC5)CC4)cc13)-c1cc3c(c(=O)n1C2)COC(=O)[C@]3(O)CC [Free CPT-11, irinotecan]
Reply: 13.4 µM
